- experiment-description: AUC (0 to infinity) in Wistar-Han rat at 5 mg/kg, po after 0.033 to 24 hrs by LC-MS/MS method
- Type: ADME, organism-based
- Parameters: dose 5 mg/kg, time infinity, route oral
- assay-conditions: in vivo
measured-attribute: AUC(0-inf) (ng·h/mL)
All answers are understood in ng·h/mL, so give the number only.

-- ask Please report the recorded AUC(0-inf) for `CC(C)C[C@@H]1NC(=O)[C@H]2CCCN2C(=O)[C@H](CC(C)C)N(C)C(=O)C[C@H](O)[C@H](CC(C)C)NC(=O)[C@H](CC(C)C)N(C)C(=O)[C@@H](CC(C)C)N(C)C(=O)C[C@@H]1O` .
-- reply 1760

Source of measurements: ChEMBL document CHEMBL3576769
